The values you see were collected from patent US12371439B2.

# assayText: Stability investigation of the crystalline forms (HPLC purity, samples placed open and flat)
# Assay type: physicochemical
# reportedConditions: high humidity of 90%, Day 5
measurementName: HPLC purity Day 5 (%)

Inquiry: In one line, give reported HPLC purity Day 5 (%) of the entry COC(=O)[C@H](c1ccccc1Cl)N1CC[C@@H]2SC(=O)C=C2C1 (racemic) [Comparative preparation example 3, reference compound] .
Reply text: 97.66%

Inquiry: In one line, give reported HPLC purity Day 5 (%) of the entry COC(=O)[C@H](c1ccccc1Cl)N1CC[C@@H]2SC(=O)C=C2C1 (racemic) [Comparative preparation example 2, reference compound] .
Reply text: 96.33%

Inquiry: In one line, give reported HPLC purity Day 5 (%) of the entry COC(=O)[C@H](c1ccccc1Cl)N1CC[C@@H]2SC(=O)C=C2C1 (racemic) [Comparative preparation example 1, reference compound] .
Reply text: 96.75%

Inquiry: In one line, give reported HPLC purity Day 5 (%) of the entry COC(=O)[C@H](c1ccccc1Cl)N1CC[C@@H]2SC(=O)C=C2C1 [Example 4] .
Reply text: 99.89%

Inquiry: In one line, give reported HPLC purity Day 5 (%) of the entry COC(=O)[C@H](c1ccccc1Cl)N1CC[C@@H]2SC(=O)C=C2C1 [Example 1] .
Reply text: 99.82%

Inquiry: In one line, give reported HPLC purity Day 5 (%) of the entry COC(=O)[C@H](c1ccccc1Cl)N1CC[C@@H]2SC(=O)C=C2C1 [Example 5] .
Reply text: 99.87%

Inquiry: In one line, give reported HPLC purity Day 5 (%) of the entry COC(=O)[C@H](c1ccccc1Cl)N1CC[C@@H]2SC(=O)C=C2C1 [Example 7] .
Reply text: 99.88%
